This collection of values is drawn from the C3SDB collision cross section collection.

- CONDITIONS: [M+H]+; instrument: DT; single field, calibrated with ESI Low Concentration Tuning Mix (Agilent)
The entries below come with measured collision cross section (N2) values attached.

| COMPOUND | collision cross section (N2) [Å²] |
| --- | --- |
| O=C(O)/C=C/c1cnc[nH]1 [UROCANATE] | 134.6 |
| C[C@]12CCC(=O)C=C1CC[C@@H]1[C@@H]2[C@@H](O)C[C@@]2(C)[C@H]1CC[C@]2(O)C(=O)CO | 188.6 |
| O=C(O)Cc1cnc[nH]1 [4-IMIDAZOLEACETATE] | 123.9 |
| CCCC[C@H](N)C(=O)O | 136 |
| N[C@@H](CCOC(=O)CCC(=O)O)C(=O)O | 145.9 |
| CC(C)(COP(=O)(O)OP(=O)(O)OC[C@H]1O[C@@H](n2cnc3c(N)ncnc32)[C@H](O)[C@@H]1OP(=O)(O)O)[C@@H](O)C(=O)NCCC(=O)NCCS | 241.4 |
| CC(C)(N)C(=O)O [2-AMINOISOBUTYRATE] | 123.8 |
| O=C(O)c1cc(=O)c2ccccc2[nH]1 [KYNURENATE] | 136.7 |
| c1ncc2[nH]cnc2n1 | 121.9 |
| O=c1nc[nH]c2c1ncn2[C@@H]1O[C@H](COP(=O)(O)OP(=O)(O)O)[C@@H](O)[C@H]1O [INOSINE 5'-DIPHOSPHATE] | 186.6 |
| Cc1ncc(CO)c(CO)c1O | 134.4 |
| NC(=O)c1ccccc1O [SALICYLAMIDE] | 124.4 |
| NC(=O)c1ccc[n+]([C@@H]2O[C@H](COP(=O)(O)OP(=O)(O)OC[C@H]3O[C@@H](n4cnc5c(N)ncnc54)[C@H](OP(=O)(O)O)[C@@H]3O)[C@@H](O)[C@H]2O)c1 | 232.6 |
| C[C@@H]1NC(=O)N[C@@H]1CCCCCC(=O)O | 144 |
| NC(=O)c1ccc[n+]([C@@H]2O[C@H](COP(=O)([O-])O)[C@@H](O)[C@H]2O)c1 [NICOTINAMIDE MONONUCLEOTIDE] | 166 |
| O=c1nc[nH]c2c1ncn2[C@@H]1O[C@H](COP(=O)(O)OP(=O)(O)OP(=O)(O)O)[C@@H](O)[C@H]1O [INOSINE TRIPHOSPHATE] | 193.6 |
| CC(C)[C@H](N)C(=O)O | 120.9 |

* * *

The entries below come with measured collision cross section (N2) values attached.
- CONDITIONS: [M+H]+; instrument: DT; single field, calibrated with Agilent tune mix (Agilent)

| STRUCTURE | collision cross section (N2) [Å²] |
| --- | --- |
| CCCCC/C=C\C/C=C\C/C=C\CCCCC(=O)OC[C@H](COP(=O)(O)OCCN)OC(=O)CCCCCCCCCCC/C=C\C/C=C\CCCCC | 287.1 |
| CCCCCCCCCCCCC=CC[C@@H](O)[C@H](COP(=O)([O-])OCC[N+](C)(C)C)NC(=O)CC=CCC=CCCCCCCCCCCCCCCCCC | 302 |
| CCCCC/C=C\C/C=C\CCCCCCCCCC(=O)O[C@H](COC(=O)CCCCCCCCCCCCC)COP(=O)(O)OCCN | 272.7 |
| CCCCCCCC/C=C\C/C=C\C/C=C\CCCC(=O)OC[C@H](COP(=O)([O-])OCC[N+](C)(C)C)OC(=O)CCCCCCCCCCCCC | 281.8 |
